# assay.details: parental Ba/F3 cell viability inhibition, counter-screen for JAK2V617F inhibitor project, murine pro-B, CellTiter-Glo luminescence (AID 1486)
# particulars: CellTiter-Glo ATP luminescence, at 5.6 µM
Hit rate of the full screen: of about 220,000 compounds, about 2,400 (1.1%) were called active.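 How the source made its calls: active means inhibition above a per-campaign cutoff, the mean inhibition of all tested compounds plus 3 SD (cut at about 27% in these data); inactive means the rest.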 This is one part of a sample in which actives are shown more often than they occur.
Can you answer with just one of these options? active, inactive

> print(dat)
                                   molecule  qualitative.label
1  Cc1ccc(CN2CCCC(C(=O)c3ccc4c(c3)OCO4)C2)cc1C (stereo not drawn)           inactive

Recorded call for CCCCCCCCCCCCn1ccc(=N)cc1 ?
active

Hey, what did the test say about CCC(C)n1c(O)c(/C=N/Nc2nc3c(c(=O)n(C)c(=O)n3C)n2C)c(=O)[nH]c1=S (stereo not drawn) ?
inactive

Assay result, entry CC(C)c1ccc(-n2c(O)c(/C=N/N3CCOCC3)c(=O)[nH]c2=S)cc1 — outcome?
inactive

Per the assay record, what outcome was assigned to COc1ccc(-n2c(-c3ccccc3)nc3ccccc3c2=O)cc1 ?
inactive

Look up the recorded call for COCc1cc(OC(=O)N(C)C)nc(-c2ccc(C)c(Cl)c2)n1 in this test.
inactive

Could you kindly confirm the outcome this assay logged for CN(C)CC1Oc2ccccc2OC1(O)c1ccccc1 (stereo not drawn) ?
inactive

Fill in: this test's call for CC1=CC(=Cc2sc3ccccc3[n+]2C)C=C(C)O1 is ___
active

Field: outcome | Entry: CC1=C(C(=O)Nc2ccccc2)S(=O)(=O)CCO1
inactive

Answer briefly: the call reported for O=c1[nH]c(=O)n(CCc2ccc(F)cc2)c(O)c1/C=N/N1CCCCC1 in this assay.
inactive

Hi team, can someone confirm the assay call for COc1ccc(-n2c(O)c(C(C)=Nc3ccc4c(c3)CCC4)c(=O)[nH]c2=O)cc1 ?
inactive

Name the outcome recorded for CCOc1ccc(-c2cc(C)[n+](CCN(CC)CC)c(-c3ccc(OCC)cc3)c2)cc1 in the assay.
active

Recorded test call requested for CCOc1cccc(=NC2CCCCC2)c2c(C)[nH]c(C)c12
active
